Listing: Max MFI of selected binders
# EXPERIMENTAL SYSTEM: T1, cynomolgus CCR8 (cynomolgus, UniProt G7NYJ2 1-355)
# T1 construct: whole, on cells
# T1 sequence (G7NYJ2 entry or part of it): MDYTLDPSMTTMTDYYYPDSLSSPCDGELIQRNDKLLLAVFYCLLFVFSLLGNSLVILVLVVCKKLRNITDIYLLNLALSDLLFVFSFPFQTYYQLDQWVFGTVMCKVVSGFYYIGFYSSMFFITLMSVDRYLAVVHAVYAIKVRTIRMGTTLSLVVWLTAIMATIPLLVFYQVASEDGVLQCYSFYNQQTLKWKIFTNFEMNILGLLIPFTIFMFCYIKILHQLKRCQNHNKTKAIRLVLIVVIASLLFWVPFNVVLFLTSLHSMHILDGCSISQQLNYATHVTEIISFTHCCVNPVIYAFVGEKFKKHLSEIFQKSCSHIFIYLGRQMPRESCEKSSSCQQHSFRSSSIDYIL
# PROCEDURE SUMMARY: FACS on ExpiCHO-S-cynomolgus CCR8 cells
Write the value in MFI as a bare number.

Look over these answered cases.
{"BINDER": "CM348 (antibody, V domains shown, CM348 is not defined in words; also called CM348 HuIgG1; parental antibody CM348) VH: QVQLVETGGGLVRPGNSLKLSCVTSGFSFSNYRMHWLRQPPGKRLEWIAVITVKSDNYGANYAESVKGRFTISRDDSKSSVYLQMNRLREEDTATYYCSSLGRVAYWGQGTLVTVSA VL: DIVMTQSQKFMFTSVGDRVSVTCKASQNVDTNVVWYQQKPGQSPKALIYSASSRYSGVPDRFTGSGSGTDFTLTISNVQSEDLAEYFCQQHNSFPLTFGAGTKLELI", "Max MFI, MFI": 238}
{"BINDER": "Hu348-2 (antibody, V domains shown, humanized IgG) VH: EVQLVESGGGLVQPGGSLKLSCATSGFSFSNYRMHWLRQASGKGLEWVGVITVKSDNYGANYAASVKGRFTISRDDSKSSVYLQMNSLKTEDTAVYYCSSLGRVAYWGQGTLVTVSS VL: DIQMTQSPSSVSASVGDRVTITCKASQNVDTNVVWYQQKPGKAPKALIYSASSRYSGVPDRFSGSGSGTDFTLTISSLQPEDFATYYCQQHNSFPLTFGQGTKLEIK", "Max MFI, MFI": 296}
{"BINDER": "Hu348-3 (antibody, V domains shown, humanized IgG) VH: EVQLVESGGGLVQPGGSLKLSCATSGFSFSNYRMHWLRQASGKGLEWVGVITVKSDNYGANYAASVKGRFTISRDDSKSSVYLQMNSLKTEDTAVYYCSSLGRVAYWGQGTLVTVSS VL: DIQMTQSPSSVSASVGDRVTITCKASQNVDTNVVWYQQKPGQSPKLLIYSASSRYSGVPDRFSGSGSGTDFTLTISSLQPEDFATYYCQQHNSFPLTFGQGTKLEIK", "Max MFI, MFI": 350}
{"BINDER": "Hu348-7 (antibody, V domains shown, humanized IgG) VH: EVQLVESGGGLVQPGGSLKLSCATSGFSFSNYRMHWLRQASGKGLEWVGRITVKSDNYGTAYAASVKGRFTISRDDSKSSVYLQMNSLKTEDTAVYYCSSLGRVAYWGQGTLVTVSS VL: DIQMTQSPSSVSASVGDRVTITCKASQNVDTNVVWYQQKPGQSPKALIYSASSRYSGVPDRFSGSGSGTDFTLTISSLQPEDFATYYCQQHNSFPLTFGQGTKLEIK", "Max MFI, MFI": 174}

Now look at this one.
INPUT: Quick check: Max MFI of Hu348-5 (antibody, V domains shown, humanized IgG) VH: EVQLVESGGGLVQPGGSLKLSCAASGFSFSNYAMHWLRQASGKGLEWVGVITVKSDNYGANYAASVKGRFTISRDDSKSSVYLQMNSLKTEDTAVYYCSSLGRVAYWGQGTLVTVSS VL: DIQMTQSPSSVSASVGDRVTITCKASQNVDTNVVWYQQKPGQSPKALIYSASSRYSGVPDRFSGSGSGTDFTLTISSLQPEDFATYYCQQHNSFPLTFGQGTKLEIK ?
OUTPUT: 6
